Measured IC50 values are reported for all entries that follow.
Target: T1, human IL-4 (human, UniProt P05112 25-153, biotinylated in the receptor binding assay and on the Biacore chip)
T1 construct: also called interleukin-4; biotinylated IL-4
T1 sequence (looked up): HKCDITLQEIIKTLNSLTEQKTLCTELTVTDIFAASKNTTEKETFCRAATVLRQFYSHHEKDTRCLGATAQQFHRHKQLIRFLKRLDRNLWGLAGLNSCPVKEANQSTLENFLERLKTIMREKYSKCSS
Test: DOM9 RBA (IL-4 RBA)
The reply should contain only the number, in nM.

Worked examples follow.
DOM10-213-TVAAPS-DOM9-155-78 (bispecific antibody, in-line fusion, from pDOM5) DIQMTQSPSSLSASVGDRVTITCRASQAIPWGLNWYQQKPGKAPKLLIYDVSSLQSGVPSRFSGSGSGTDFTLTISSLQPEDFATYYCQQDIHIPMTFGQGTKVEIKRTVAAPSDIQMTQSPSSLSASVGDRVTITCRASRHIGDWLHWYQQKPGKAPKLLIAWASTLDSGVPSRFSGSGSGTDFTLTISSLQPEDFATYYCLQEGWGPPTFGQGTKVEIKR = 6.91
DOM10-236-ASTKGPS-DOM9-155-78 (bispecific antibody, in-line fusion, from pDOM5) EVQLLESGGGLVQPGGSLRLSCAASGFTFPKYDMMWVRQAPGKGLEWVSSIDHLGVNTYYADSVKGRFTISRDNSKNTLYLQMNSLRAEDTAVYYCAKESDWPSFDYWGQGTLVTVSSASTKGPSDIQMTQSPSSLSASVGDRVTITCRASRHIGDWLHWYQQKPGKAPKLLIAWASTLDSGVPSRFSGSGSGTDFTLTISSLQPEDFATYYCLQEGWGPPTFGQGTKVEIKR = 2.54

# context switch: different binder, same IC50
Q: Which IC50 value is on record for DOM10-224-TVAAPS-DOM9-155-78 (bispecific antibody, in-line fusion, from pDOM5) DIQMTQSPSSLSASVGDRVTITCRASPNIAVDLAWYQQKPGKAPKLLIRGVSRLQSGVPSRFSGSGSGTDFTLTISSLQPEDFATYYCRQGAMGSYTFGQGTKVEIKRTVAAPSDIQMTQSPSSLSASVGDRVTITCRASRHIGDWLHWYQQKPGKAPKLLIAWASTLDSGVPSRFSGSGSGTDFTLTISSLQPEDFATYYCLQEGWGPPTFGQGTKVEIKR ?
A: 12.5
